Tested on: A673/TR/shEF
Assay: cell viability (LOESS-normalised, relative to median of negative controls) (log2 ratio); higher = more viable cells (less compound effect), active = hit call of the paper (over 3 MAD below the median)
Settings: 0.25 µM; library screen: screen1; EWS-FLI1 expression: low (doxycycline-induced shRNA knockdown); treatment time: 72 h
Hit rate of the full screen: of about 3,200 compounds, about 300 (9.4%) showed activity. This excerpt belongs to a sample that is enriched for actives.
Measurement type: cell viability (log2)
Respond numerically, and do not add a unit to the figure.

Some solved cases for reference:
CN(C)c1ccc(/C=C2\C(=O)Nc3ccccc32)cc1; 0.0583
CN(C)CCCN1c2ccccc2Sc2ccc(Cl)cc21; 0.155
CC(C)/C(O)=C1/C(=O)O[C@@H](c2ccoc2)[C@]2(C)C(O)[C@@H](O)[C@@]34OC5(C)OC67CC(C)(C(O)[C@]6(O)[C@@H](O)[C@]3(O5)C12)[C@H](CC(=O)O)[C@]74C (some centres undefined); 0.0645
C[S+]([O-])c1ccc(-c2nc(-c3ccc(F)cc3)c(-c3ccncc3)[nH]2)cc1 (centres undefined); 0.121
CC(=O)Oc1cc(-c2coc3cc(OC(C)=O)c(OC(C)=O)c(OC(C)=O)c3c2=O)cc(OC(C)=O)c1OC(C)=O; -0.0292

stdin: State cell viability (log2) on A673/TR/shEF. Entry: Cn1cnc([N+](=O)[O-])c1Sc1ncnc2nc[nH]c12
stdout: 0.0765

stdin: Report cell viability (log2) under test system A673/TR/shEF for CC1(C)CC[C@]2(C)CC[C@]3(C)C(=CC[C@@H]4[C@@]5(C)CC[C@H](O)C(C)(C)[C@@H]5CC[C@]43C)[C@@H]2C1 .
stdout: 0.0065

stdin: # assay system A673/TR/shEF: give cell viability (log2) of COc1ccc(C(=O)c2ccccc2)c(O)c1O
stdout: 0.143

stdin: State cell viability (log2) (A673/TR/shEF) of COc1c2ccoc2c(OC)c2oc(=O)ccc12 .
stdout: -0.0309

stdin: State recorded cell viability (log2) with A673/TR/shEF, entry C=C(C)C1Cc2c(ccc(C(=O)O)c2O)O1 (centres undefined) , no comment.
stdout: -0.00474

stdin: State the measured cell viability (log2) (A673/TR/shEF) of N#CC(=C(N)Sc1ccccc1N)C(C#N)=C(N)Sc1ccccc1N
stdout: 0.136

stdin: Quote A673/TR/shEF cell viability (log2) for entry Cn1cnnc1SCC(=O)N1c2ccccc2C(C)(c2ccccc2)CC1(C)C (centres undefined) .
stdout: 0.058

stdin: Give measured cell viability (log2) for O=C1Nc2ccc(I)cc2/C1=C/c1cc(Br)c(O)c(Br)c1 (A673/TR/shEF).
stdout: -0.0458

stdin: Given O=C(O)CN(CC(=O)O)Cc1cc2c(cc1O)Oc1cc(O)c(CN(CC(=O)O)CC(=O)O)cc1C21OC(=O)c2ccccc21 , report its cell viability (log2) on A673/TR/shEF.
stdout: 0.0463

stdin: Provide the reported cell viability (log2) (system: A673/TR/shEF) for CC(C)c1c(O)ccc2c1CCC1[C@@](C)(C(=O)O)CCC[C@]21C (some centres undefined)
stdout: 0.152

stdin: Find the measured cell viability (log2) of CN(C)CCCN1c2ccccc2Sc2ccc(C(F)(F)F)cc21 with A673/TR/shEF as test system.
stdout: 0.0785

stdin: Under A673/TR/shEF, report cell viability (log2) for COc1cc(CN2CCN(Cc3ccccc3Br)CC2)cc(OC)c1OC
stdout: 0.0128

stdin: State cell viability (log2) on A673/TR/shEF. Entry: COc1ccccc1CN1CCN(Cc2ccc(OC)c(OC)c2)CC1
stdout: 0.078

stdin: Print A673/TR/shEF cell viability (log2) for CC(=O)O[C@]1(C(=O)CO)[C@H](C)C[C@H]2[C@@H]3CCC4=CC(=O)C=C[C@]4(C)[C@@]3(F)[C@@H](O)C[C@@]21C .
stdout: -0.118

stdin: Determine reported cell viability (log2) for O=C(NCc1ccco1)/C(=C\c1ccco1)NC(=O)c1cccs1 ; test system: A673/TR/shEF.
stdout: 0.0429

----------
Test system: A673/TR/shEF
Test: cell viability (LOESS-normalised, relative to median of negative controls) (log2 ratio); higher = more viable cells (less compound effect), active = hit call of the paper (over 3 MAD below the median)
Conditions: 8.3 µM; library screen: screen3; EWS-FLI1 expression: low (doxycycline-induced shRNA knockdown); treatment time: 72 h
The campaign covered roughly 3,200 compounds. About 300 (9.4%) showed activity. This is one part of a sample in which actives are shown more often than they occur.
Permitted responses: active, inactive

Solved entries (count: 3):
COc1ccc2nc([S@@+]([O-])Cc3ncc(C)c(OC)c3C)[nH]c2c1; inactive
COc1cc2c(cc1O)CC[C@@H]1[C@@H]2CC[C@]2(C)[C@@H](O)CC[C@@H]12; inactive
C=CC(=O)N1CCC[C@@H](n2nc(-c3ccc(Oc4ccccc4)cc3)c3c(N)ncnc32)C1; inactive

stdin: Dear all, I need the recorded test outcome for CNC(=O)c1c(F)cccc1Nc1nc(Nc2cc3c(cc2OC)CCN3C(=O)CN(C)C)nc2[nH]ccc12 , thank you.
stdout: active

stdin: Call for entry COc1ccc(Cl)cc1C(=O)NCCc1ccc(S(=O)(=O)NC(=O)NC2CCCCC2)cc1 :
stdout: inactive

stdin: Hi team, can someone confirm the assay call for COc1ccc2nc([S+]([O-])Cc3ncc(C)c(OC)c3C)[nH]c2c1 (configuration not stated) ?
stdout: inactive

stdin: Give the logged outcome of this assay for the following molecule: COc1cc2c(Oc3ccc4[nH]c(C)cc4c3F)ncnc2cc1OCCCN1CCCC1
stdout: inactive

stdin: Entry CC1CC2C3CCC4=CC(=O)C=CC4(C)C3C(=O)CC2(C)[C@@]1(O)C(=O)CO (some centres not stated) : call = ?
stdout: inactive

stdin: Just curious, what result did CCc1nc(N)nc(N)c1-c1ccc(Cl)cc1 get here?
stdout: inactive

stdin: Which outcome was entered for the molecule OCC1OC(O)C(O)C(O)C1O (configuration not stated) in this test?
stdout: inactive

stdin: Would you mind telling me which call this test gave Cc1nc(N)sc1-c1ccnc(Nc2ccc(N3CCOCC3)cc2)n1 ?
stdout: inactive

stdin: Returns: the outcome recorded for CCN(CC)CC(=O)Nc1c(C)cccc1C in this assay.
stdout: inactive

stdin: Field: outcome | Entry: O=C(/C=C/c1cccc(S(=O)(=O)Nc2ccccc2)c1)NO
stdout: active

stdin: Record lookup: outcome of this test for S=c1nc[nH]c2nc[nH]c12 ?
stdout: inactive

stdin: Hi, do you know how CC[C@@]1(O)C(=O)OCc2c1cc1n(c2=O)Cc2cc3c(CN(C)C)c(O)ccc3nc2-1 came out in this test?
stdout: active

stdin: Give the logged outcome of this assay for the following molecule: Nc1nc(=S)c2[nH]cnc2[nH]1
stdout: inactive

stdin: Assay result, entry Cc1c(OCC(F)(F)F)ccnc1C[S+]([O-])c1nc2ccccc2[nH]1 (configuration not stated) — outcome?
stdout: inactive

stdin: Record request — test call for COc1cc(Nc2c(C#N)cnc3cc(OCCCN4CCN(C)CC4)c(OC)cc23)c(Cl)cc1Cl
stdout: inactive

stdin: Fill in: this test's call for COc1ccc(-c2nc3ccc(C4=NNC(=O)CC4C)cc3[nH]2)cc1 (configuration not stated) is ___
stdout: inactive

stdin: Recorded test outcome, item C[C@]12CC[C@@H]3c4ccc(O)cc4CC[C@H]3[C@@H]1CC[C@@H]2O
stdout: inactive

stdin: What call does the record list for O=C1[C@H](Cc2ccc(O)cc2)N2C(=O)CCN(C(=O)NCc3ccccc3)[C@H]2CN1Cc1cccc2ccccc12 ?
stdout: inactive

stdin: Answer briefly: the call reported for Cn1cc(C2=C(c3ccc(Cl)cc3Cl)C(=O)NC2=O)c2ccccc21 in this assay.
stdout: inactive

----------
System: A673/TR/shEF
Assay: cell viability (LOESS-normalised, relative to median of negative controls) (log2 ratio); higher = more viable cells (less compound effect), active = hit call of the paper (over 3 MAD below the median)
Conditions: 8.3 µM; library screen: screen3; EWS-FLI1 expression: high (no doxycycline); treatment time: 72 h
In all, about 3,200 compounds went through this assay and about 300 (9.4%) showed activity. Shown is part of a subset that was picked to be rich in actives.
Threshold check on cell viability (log2): strictly below -0.02 is yes; on or above -0.02 is no.

Some solved cases for reference:
CCN(CCO)CCCOc1ccc2c(Nc3cc(CC(=O)Nc4cccc(F)c4)[nH]n3)ncnc2c1; yes
COc1cccc2c1C(=O)c1c(O)c3c(c(O)c1C2=O)C[C@@](O)(C(C)=O)C[C@@H]3O[C@H]1C[C@H](N)[C@H](O)[C@H](C)O1; yes
O=C(/C=C/c1cccc(S(=O)(=O)Nc2ccccc2)c1)NO; yes
O=c1[nH]cc(F)c(=O)[nH]1; no
CC[C@@]1(O)C(=O)OCc2c1cc1n(c2=O)Cc2cc3c(CN(C)C)c(O)ccc3nc2-1; yes

stdin: Does the reported cell viability (log2) of C#Cc1cccc(Nc2ncnc3cc(OCCOC)c(OCCO)cc23)c1 stay below -0.02?
stdout: yes

stdin: I'd appreciate it if you could check whether CS(=O)(=O)c1ccc(C(=O)Nc2ccc(Cl)c(-c3ccccn3)c2)c(Cl)c1 has cell viability (log2) smaller than -0.02.
stdout: no

stdin: cell viability (log2) strictly < -0.02 for this compound? COc1ccc(-c2nc3ccc(C4=NNC(=O)CC4C)cc3[nH]2)cc1 (stereo not drawn)
stdout: yes
